Collected growth at 10 µM values appear next to each entry.
# System: SF-268
# PROTOCOL_DESCRIPTION: Cytotoxicity against human SF268 cells assessed as cell growth at 10 uM after 48 hrs by SRB assay relative to untreated control
# Assay type: functional
# MEASUREMENT_CONTEXT: SF-268, 48 h, read-out: Activity
Response body: numeric value in %, unit text excluded.

Below: 3 compounds and their reported growth at 10 µM.
[
  {
    "SMILES_ENTRY": "COc1ccc(C2=Nc3nc4ccccn4c3C(=O)[C@H](C)N2)cc1",
    "ENDPOINT_UNIT": "%",
    "RECORDED_MEASUREMENT": 104
  },
  {
    "SMILES_ENTRY": "C[C@H]1NC(c2ccc(Br)cc2)=Nc2nc3ccccn3c2C1=O",
    "ENDPOINT_UNIT": "%",
    "RECORDED_MEASUREMENT": 99.8
  },
  {
    "SMILES_ENTRY": "COc1ccc(C2=Nc3nc4ccccn4c3C(=O)[C@H](Cc3ccccc3)N2)cc1",
    "ENDPOINT_UNIT": "%",
    "RECORDED_MEASUREMENT": 105
  }
]

Problem: Specify reported growth at 10 µM for the compound shown: `O=C1c2c(nc3ccccn23)N=C(c2ccccc2)N2CCC[C@@H]12`
Solution: 97.8

Problem: Please indicate growth at 10 µM recorded for `O=C1Nc2nc3ccccn3c2C(=O)[C@H](Cc2ccccc2)N1`
Solution: 101

Problem: Give a short answer stating reported growth at 10 µM for `Cc1ccc(C2=Nc3nc4ccccn4c3C(=O)[C@H](C)N2)cc1` .
Solution: 99.7

Problem: Tell me its growth at 10 µM given `C[C@@H]1NC(c2ccc(N(C)C)cc2)=Nc2nc3ccccn3c2C1=O` as the entry.
Solution: 103

Problem: Answer with the recorded growth at 10 µM for the compound listed here: `C[C@@H]1NC(c2ccc(Br)cc2)=Nc2nc3ccccn3c2C1=O`
Solution: 83.4

Problem: State its growth at 10 µM for this compound: `Cc1ccc(C2=Nc3nc4ccccn4c3C(=O)[C@H](Cc3ccccc3)N2)cc1`
Solution: 97.4

Problem: Return growth at 10 µM (reported value) for this compound: `Cc1ccccc1C1=Nc2nc3ccccn3c2C(=O)[C@H](Cc2ccccc2)N1`
Solution: 104

* * *

growth at 10 µM: recorded values
# Test system: SK-MEL-28
# PROTOCOL_DESCRIPTION: Cytotoxicity against human SK-MEL-28 cells assessed as cell growth at 10 uM after 48 hrs by SRB assay relative to untreated control
# Type: functional
# MEASUREMENT_CONTEXT: SK-MEL-28, 48 h, read-out: Activity
Write the value in % as a bare number.

[
  {
    "SMILES_ENTRY": "COc1ccc(C2=Nc3nc4ccccn4c3C(=O)[C@H](Cc3ccccc3)N2)cc1",
    "growth at 10 µM (%)": 98.1
  }
]

Problem: Specify growth at 10 µM for `Cc1ccccc1C1=Nc2nc3ccccn3c2C(=O)[C@H](Cc2ccccc2)N1` and stop.
Solution: 113

Problem: Name the recorded growth at 10 µM of the item `O=C1c2c(nc3ccccn23)N=C(c2ccccc2)N2CCC[C@@H]12` in your answer.
Solution: 108

Problem: Tell me its growth at 10 µM given `C[C@@H]1NC(c2ccccc2)=Nc2nc3ccccn3c2C1=O` as the entry.
Solution: 113

Problem: Assign growth at 10 µM to the following record: `Cc1ccc(C2=Nc3nc4ccccn4c3C(=O)[C@H](Cc3ccccc3)N2)cc1`
Solution: 109

Problem: For the compound `O=C1c2c(nc3ccccn23)NC(=O)N2CCC[C@@H]12` , give its measured growth at 10 µM value.
Solution: 106

Problem: Tell me its growth at 10 µM given `C[C@H]1NC(c2ccc(Br)cc2)=Nc2nc3ccccn3c2C1=O` as the entry.
Solution: 97.5

Problem: Give the reported value of growth at 10 µM for this record: `C[C@@H]1NC(c2ccc(Br)cc2)=Nc2nc3ccccn3c2C1=O`
Solution: 66.2

Problem: Input `O=C1Nc2nc3ccccn3c2C(=O)[C@H](Cc2ccccc2)N1` , output reported growth at 10 µM.
Solution: 114

Problem: Annotate the compound `Cc1ccc(C2=Nc3nc4ccccn4c3C(=O)[C@H](C)N2)cc1` with its measured growth at 10 µM.
Solution: 88.9

Problem: Return the recorded growth at 10 µM value; entry: `COc1ccc(C2=Nc3nc4ccccn4c3C(=O)[C@H](C)N2)cc1`
Solution: 105

Problem: Indicate the recorded growth at 10 µM value for this compound: `Cc1ccc(C2=Nc3nc4ccccn4c3C(=O)[C@@H]3CCCN23)cc1`
Solution: 108

Problem: Given the compound `C[C@@H]1NC(c2ccc(N(C)C)cc2)=Nc2nc3ccccn3c2C1=O` , write its reported growth at 10 µM.
Solution: 113

* * *

Reported growth at 10 µM values for a set of molecules
# Test system: SR
# PROTOCOL_DESCRIPTION: Cytotoxicity against human SR cells assessed as cell growth at 10 uM after 48 hrs by SRB assay relative to untreated control
# Assay type: functional
# MEASUREMENT_CONTEXT: read-out: Activity
API: value field is a number in %; no unit string.

[
  {
    "SMILES_ENTRY": "O=C1c2c(nc3ccccn23)N=C(c2ccccc2)N2CCC[C@@H]12",
    "MEASURED_TARGET": "SR",
    "ENDPOINT_UNIT": "%",
    "growth at 10 µM": 118
  }
]

Problem: Return the recorded growth at 10 µM value; entry: `Cc1ccccc1C1=Nc2nc3ccccn3c2C(=O)[C@H](Cc2ccccc2)N1`
Solution: 122

Problem: Report measured growth at 10 µM; entry is `COc1ccc(C2=Nc3nc4ccccn4c3C(=O)[C@H](C)N2)cc1`
Solution: 80.4

Problem: Determine from records and report growth at 10 µM for `O=C1Nc2nc3ccccn3c2C(=O)[C@H](Cc2ccccc2)N1`
Solution: 107

* * *

Catalogue of molecules with associated growth at 10 µM
# PROTOCOL_DESCRIPTION: Cytotoxicity against human UO31 cells assessed as cell growth at 10 uM after 48 hrs by SRB assay relative to untreated control
# Assay type: functional
# MEASUREMENT_CONTEXT: UO-31, 48 h, read-out: Activity

Look over these answered cases.
[
  {
    "SMILES_ENTRY": "COc1ccc(C2=Nc3nc4ccccn4c3C(=O)[C@H](C)N2)cc1",
    "RECORDED_MEASUREMENT": "55.6%"
  },
  {
    "SMILES_ENTRY": "C[C@@H]1NC(c2ccccc2)=Nc2nc3ccccn3c2C1=O",
    "RECORDED_MEASUREMENT": "82.5%"
  },
  {
    "SMILES_ENTRY": "O=C1c2c(nc3ccccn23)N=C(c2ccccc2)N2CCC[C@@H]12",
    "RECORDED_MEASUREMENT": "88.7%"
  },
  {
    "SMILES_ENTRY": "C[C@@H]1NC(c2ccc(N(C)C)cc2)=Nc2nc3ccccn3c2C1=O",
    "RECORDED_MEASUREMENT": "53.7%"
  }
]

Now examine the next entry.
Problem: Answer with reported growth at 10 µM of `Cc1ccc(C2=Nc3nc4ccccn4c3C(=O)[C@@H]3CCCN23)cc1`
Solution: 80.3%

* * *

# Tested on: LOX IMVI
# PROTOCOL_DESCRIPTION: Cytotoxicity against human LOXIMVI cells assessed as cell growth at 10 uM after 48 hrs by SRB assay relative to untreated control
# Assay type: functional
# MEASUREMENT_CONTEXT: read-out: Activity
EXPERIMENTAL_ENDPOINT: growth at 10 µM (%)
Express it in %; write the number only.

As a guide, the following entries are already answered.
[
  {
    "SMILES_ENTRY": "COc1ccc(C2=Nc3nc4ccccn4c3C(=O)[C@H](C)N2)cc1",
    "ENDPOINT_UNIT": "%",
    "RECORDED_MEASUREMENT": 87.6
  },
  {
    "SMILES_ENTRY": "O=C1c2c(nc3ccccn23)N=C(c2ccccc2)N2CCC[C@@H]12",
    "ENDPOINT_UNIT": "%",
    "RECORDED_MEASUREMENT": 90.1
  },
  {
    "SMILES_ENTRY": "Cc1ccc(C2=Nc3nc4ccccn4c3C(=O)[C@@H]3CCCN23)cc1",
    "ENDPOINT_UNIT": "%",
    "RECORDED_MEASUREMENT": 87.4
  },
  {
    "SMILES_ENTRY": "O=C1c2c(nc3ccccn23)NC(=O)N2CCC[C@@H]12",
    "ENDPOINT_UNIT": "%",
    "RECORDED_MEASUREMENT": 92.8
  }
]

Problem: Report measured growth at 10 µM; entry is `Cc1ccccc1C1=Nc2nc3ccccn3c2C(=O)[C@H](Cc2ccccc2)N1`
Solution: 91.7

Problem: Fill in reported growth at 10 µM for this entry: `Cc1ccc(C2=Nc3nc4ccccn4c3C(=O)[C@H](C)N2)cc1`
Solution: 88.6

Problem: Give recorded growth at 10 µM. `C[C@@H]1NC(c2ccccc2)=Nc2nc3ccccn3c2C1=O`
Solution: 84.2

Problem: Hello, please tell me recorded growth at 10 µM for this one: `COc1ccc(C2=Nc3nc4ccccn4c3C(=O)[C@H](Cc3ccccc3)N2)cc1`
Solution: 95.2

Problem: Please supply the value of reported growth at 10 µM for the item `C[C@@H]1NC(c2ccc(N(C)C)cc2)=Nc2nc3ccccn3c2C1=O`
Solution: 87

Problem: Identify measured growth at 10 µM associated with `O=C1Nc2nc3ccccn3c2C(=O)[C@H](Cc2ccccc2)N1`
Solution: 93.5
